- experimental system: THR alpha (Homo sapiens)
- Construct: expressed in transfected cells; host or cells: HEK293T (ATCC CRL-3216)
- Sequence (P10827 1-410 isoform P10827-2): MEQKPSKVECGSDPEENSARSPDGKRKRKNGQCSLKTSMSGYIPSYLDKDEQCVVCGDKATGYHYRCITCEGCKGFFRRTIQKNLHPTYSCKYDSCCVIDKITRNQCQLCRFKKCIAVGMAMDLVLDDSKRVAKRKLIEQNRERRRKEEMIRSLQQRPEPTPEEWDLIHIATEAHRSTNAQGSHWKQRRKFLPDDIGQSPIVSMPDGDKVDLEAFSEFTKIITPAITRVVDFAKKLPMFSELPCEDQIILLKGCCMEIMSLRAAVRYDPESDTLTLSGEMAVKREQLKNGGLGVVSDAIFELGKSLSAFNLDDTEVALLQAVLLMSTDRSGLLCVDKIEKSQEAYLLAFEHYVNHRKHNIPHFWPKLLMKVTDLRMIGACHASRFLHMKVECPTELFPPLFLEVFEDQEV
- Sequence (P19793 1-462 partner): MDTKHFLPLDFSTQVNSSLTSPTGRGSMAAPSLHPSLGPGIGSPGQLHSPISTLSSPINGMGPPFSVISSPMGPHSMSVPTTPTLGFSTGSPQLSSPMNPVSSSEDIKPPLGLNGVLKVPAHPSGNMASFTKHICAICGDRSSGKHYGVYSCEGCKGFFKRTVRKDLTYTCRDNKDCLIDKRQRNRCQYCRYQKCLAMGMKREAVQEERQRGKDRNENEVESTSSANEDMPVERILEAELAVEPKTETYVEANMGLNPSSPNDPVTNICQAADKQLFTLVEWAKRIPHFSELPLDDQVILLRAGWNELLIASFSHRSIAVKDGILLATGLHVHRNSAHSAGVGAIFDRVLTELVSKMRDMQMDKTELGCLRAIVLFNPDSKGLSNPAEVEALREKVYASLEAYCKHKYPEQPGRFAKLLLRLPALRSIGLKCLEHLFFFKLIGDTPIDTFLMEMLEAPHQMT
- measurement description: HEK293T THR alpha/RXR luciferase reporter assay (Assay 2)
- Assay type: cell-based
- condition description: HEK-293T, Table 5; Assay 2; THRα; read-out: Activity category Assay 2 THRα (Emax)
# Emax per record follows

molecule | experimental system | Emax
Cc1cccc(-c2cc(Oc3c(Cl)cc(-n4ncc(=O)[nH]c4=O)cc3Cl)n[nH]c2=O)c1 [Compound 139] | THR alpha (Homo sapiens) | < 50%

# input Assign Emax to the following record: Nc1nn(-c2cc(Cl)c(Oc3cc(C4CCCCC4)c(=O)[nH]n3)c(Cl)c2)c(=O)[nH]c1=O [Compound 58]
# output 50 to 75%

# input Assign Emax to the following record: Nc1nn(-c2cc(Cl)c(Oc3cc([C@H]4C[C@H](O)C4)c(=O)[nH]n3)c(Cl)c2)c(=O)[nH]c1=O [Compound 88-A]
# output > 75%

# input Assign Emax to the following record: CC(C)c1c[nH]c2nnc(Oc3c(Cl)cc(-n4nc(N)c(=O)[nH]c4=O)cc3Cl)cc12 [Compound 53]
# output > 75%

# input Assign Emax to the following record: CC(C)c1c[nH]c2nnc(Oc3c(Cl)cc(-n4nc(C#N)c(=O)[nH]c4=O)cc3Cl)cc12 [Compound 52]
# output 50 to 75%

# input Assign Emax to the following record: Cc1cc(-n2nc(C#N)c(=O)[nH]c2=O)cc(C)c1Cc1ccc2[nH]cc(C(C)C)c2n1 [Compound 31]
# output > 75%

# input Assign Emax to the following record: Nc1nn(-c2cc(Cl)c(Oc3cc(C4CC5(CCC5)C4)c(=O)[nH]n3)c(Cl)c2)c(=O)[nH]c1=O [Compound 94]
# output < 50%

====

- experimental system: THR beta (Homo sapiens, UniProt P10828)
- Construct: expressed in transfected cells; host or cells: HEK293T (ATCC CRL-3216)
- Sequence (P10828 whole entry, one chain of several): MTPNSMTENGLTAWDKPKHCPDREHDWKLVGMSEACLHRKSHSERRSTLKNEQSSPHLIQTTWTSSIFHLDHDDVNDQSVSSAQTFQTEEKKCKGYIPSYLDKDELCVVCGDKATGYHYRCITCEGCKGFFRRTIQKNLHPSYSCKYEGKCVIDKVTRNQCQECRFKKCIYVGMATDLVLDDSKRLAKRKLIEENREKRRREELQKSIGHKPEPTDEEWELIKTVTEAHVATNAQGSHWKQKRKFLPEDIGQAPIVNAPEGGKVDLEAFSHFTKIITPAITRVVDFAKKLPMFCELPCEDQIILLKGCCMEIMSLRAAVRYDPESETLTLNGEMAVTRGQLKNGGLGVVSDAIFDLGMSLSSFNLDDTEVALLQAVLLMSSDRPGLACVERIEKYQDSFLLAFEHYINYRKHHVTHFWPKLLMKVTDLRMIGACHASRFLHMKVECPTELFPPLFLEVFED
- measurement description: HEK293T THR beta/RXR luciferase reporter assay (Assay 2)
- Assay type: cell-based
- condition description: HEK-293T; Table 5; Assay 2; THRβ; read-out: Activity category Assay 2 THRβ (Emax)
# Emax per record follows

Sample records with Emax:
compound | experimental system | Emax
Cc1cc(-n2nc(N)c(=O)[nH]c2=O)cc(C)c1Oc1cc(C(C)C)c(=O)[nH]n1 [Compound 38] | THR beta (Homo sapiens, UniProt P10828) | > 75%
N#Cc1nn(-c2cc(Cl)c(Oc3ccc4[nH]cc(C5CCCC5)c4c3)c(Cl)c2)c(=O)[nH]c1=O [Compound 5] | THR beta (Homo sapiens, UniProt P10828) | > 75%
Nc1nn(-c2cc(Cl)c(Oc3cc(-c4cccc(Cl)c4)c(=O)[nH]n3)c(Cl)c2)c(=O)[nH]c1=O [Compound 68] | THR beta (Homo sapiens, UniProt P10828) | > 75%
CC(C)/C=C1\C(=O)Nc2ccc(Oc3c(Cl)cc(-n4nc(N)c(=O)[nH]c4=O)cc3Cl)cc21 [Compound 147] | THR beta (Homo sapiens, UniProt P10828) | > 75%
C[C@H]1C[C@H](c2cc(Oc3c(Cl)cc(-n4nc(N)c(=O)[nH]c4=O)cc3Cl)n[nH]c2=O)C1 (single isomer, unassigned) [Compound 86-A] | THR beta (Homo sapiens, UniProt P10828) | > 75%

# input Assign Emax to the following record: N#Cc1nn(-c2cc(Cl)c(Oc3ccc4[nH]ccc4c3)c(Cl)c2)c(=O)[nH]c1=O [Compound 47]
# output > 75%

# input Assign Emax to the following record: Nc1nn(-c2cc(Cl)c(Oc3cc([C@H]4C[C@H](O)C4)c(=O)[nH]n3)c(Cl)c2)c(=O)[nH]c1=O [Compound 88-A]
# output < 50%

# input Assign Emax to the following record: N#Cc1nn(-c2cc(Cl)c(Oc3ccc4[nH]cc(CC5CC5)c4c3)c(Cl)c2)c(=O)[nH]c1=O [Compound 50]
# output > 75%

# input Assign Emax to the following record: Nc1nn(-c2cc(Cl)c(Oc3ccc4c(c3)C3(CC3)C(=O)N4)c(Cl)c2)c(=O)[nH]c1=O [Compound 143]
# output > 75%

# input Assign Emax to the following record: Nc1nn(-c2cc(Cl)c(Oc3cc(C4CC5(CCC5)C4)c(=O)[nH]n3)c(Cl)c2)c(=O)[nH]c1=O [Compound 94]
# output 50 to 75%

# input Assign Emax to the following record: CC(C)c1c[nH]c2ccc(Oc3c(Cl)cc(-n4nc(N)c(=O)[nH]c4=O)cc3Cl)cc12 [Compound 41]
# output > 75%

# input Assign Emax to the following record: Cc1ccc(-c2cc(Oc3c(Cl)cc(-n4nc(N)c(=O)[nH]c4=O)cc3Cl)n[nH]c2=O)cc1C [Compound 112]
# output < 50%

# input Assign Emax to the following record: Nc1nn(-c2cc(Cl)c(Oc3cc(-c4cccc(OC(F)F)c4)c(=O)[nH]n3)c(Cl)c2)c(=O)[nH]c1=O [Compound 118]
# output 50 to 75%

# input Assign Emax to the following record: CC(C)c1n[nH]c2nnc(Oc3c(Cl)cc(-n4nc(N)c(=O)[nH]c4=O)cc3Cl)cc12 [Compound 75]
# output > 75%

====

- experimental system: human thyroid receptor alpha ligand-binding domain (LBD) (Homo sapiens, UniProt P10827)
- Construct: purchased Invitrogen
- measurement description: TR-FRET thyroid receptor alpha coactivator assay (THR biochemical assay, Assay 1)
- condition description: Table 5, THRα
property measured: Activity category Assay 1 THRα (Emax)

compound | experimental system | Activity category Assay 1 THRα (Emax)
CC(c1ccccc1)c1cc(Oc2c(Cl)cc(-n3nc(N)c(=O)[nH]c3=O)cc2Cl)n[nH]c1=O (single isomer, unassigned) | human thyroid receptor alpha ligand-binding domain (LBD) (Homo sapiens, UniProt P10827) | C (Emax<50%)
CCC(C)c1cc(Oc2c(Cl)cc(-n3nc(N)c(=O)[nH]c3=O)cc2Cl)n[nH]c1=O (centres unmarked) [Compound 39-A] | human thyroid receptor alpha ligand-binding domain (LBD) (Homo sapiens, UniProt P10827) | B (Emax≥50%, and <75%)
CCC(C)c1cc(Oc2c(Cl)cc(-n3nc(N)c(=O)[nH]c3=O)cc2Cl)n[nH]c1=O (centres unmarked) [Compound 39-B] | human thyroid receptor alpha ligand-binding domain (LBD) (Homo sapiens, UniProt P10827) | B (Emax≥50%, and <75%)
Nc1nn(-c2cc(Cl)c(Oc3cc(C4Cc5ccccc54)c(=O)[nH]n3)c(Cl)c2)c(=O)[nH]c1=O (single isomer, unassigned) | human thyroid receptor alpha ligand-binding domain (LBD) (Homo sapiens, UniProt P10827) | C (Emax<50%)

With those in mind, consider the next compound.
# input # return Activity category Assay 1 THRα (Emax) for CC(c1cc(Oc2c(Cl)cc(-n3nc(N)c(=O)[nH]c3=O)cc2Cl)n[nH]c1=O)C1CC(F)(F)C1 (single isomer, unassigned) , test system: human thyroid receptor alpha ligand-binding domain (LBD) (Homo sapiens, UniProt P10827)
# output C (Emax<50%)
